Hello, the source for this data is the supplement of paper PMC12645437, in case you need it.

TARGET ENTITY: T1, CRBN, Q96SW2;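 note: pooled lentiviral library of zinc finger degron-EGFP fusions in mCherry-positive Jurkat cells, FACS-sorted after compound exposure, with degron abundance counted by next-generation sequencing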
T1 chain: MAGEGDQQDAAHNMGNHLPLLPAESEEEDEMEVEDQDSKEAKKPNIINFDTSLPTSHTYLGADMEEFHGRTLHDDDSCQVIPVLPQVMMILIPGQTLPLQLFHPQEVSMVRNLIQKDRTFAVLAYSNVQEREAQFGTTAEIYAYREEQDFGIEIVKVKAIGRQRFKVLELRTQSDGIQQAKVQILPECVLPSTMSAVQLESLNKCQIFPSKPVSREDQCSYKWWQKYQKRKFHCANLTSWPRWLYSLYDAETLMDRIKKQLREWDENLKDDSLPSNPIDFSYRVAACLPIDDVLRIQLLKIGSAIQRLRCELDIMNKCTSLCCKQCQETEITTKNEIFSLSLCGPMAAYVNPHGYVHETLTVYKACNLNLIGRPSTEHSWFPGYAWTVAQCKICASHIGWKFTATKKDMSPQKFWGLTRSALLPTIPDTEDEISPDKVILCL
EXPERIMENT DESCRIPTION: log2 fold change of degron read counts, EGFP-low vs EGFP+ sorted cells (limma voom), compound-induced degradation; higher = more compound-induced degradation of the degron-EGFP fusion; degrons are variants of IKZF1/3 zinc finger 2; compound dose not given here
CONDITION DETAILS: Jurkat; 18 h; compound: thalidomide
Over roughly 8,300 sequences, “log2 fold change of degron read counts, EGFP-low vs EGFP+ sorted cells (limma voom), compound-induced degradation” has its median near -1.1; the highest 2% begin near 3.2. For the sample, the highest values were picked, then their nearest neighbours and some sequences at random.
Quick rule for you: log2 fold change of degron read counts at 0.4 or higher means class 1, lower means class 0.

* FDCPVCGAKFTQKGNLLRHIKL [46F_47D_49P_50V_52G_53A_54K_55F_67L_, Q9UKT9] | class 1
* FLCDVCGALFTQKGNLLRHIKL [46F_47L_49D_50V_52G_53A_54L_55F_67L_, Q9UKT9] | class 0
* FGCPVCGAKFTQKGNLLRHIKL [46F_47G_49P_50V_52G_53A_54K_55F_67L_, Q9UKT9] | class 1
* FVCPQCGALFTQKGNLLRHIKL [46F_47V_49P_50Q_52G_53A_54L_55F_67L_, Q9UKT9] | class 0
* FFCPVCGAKFTQKGNLLRHIKL [46F_47F_49P_50V_52G_53A_54K_55F_67L_, Q9UKT9] | class 1
* FWCPVCGAKFTQKGNLLRHIKL [46F_47W_49P_50V_52G_53A_54K_55F_67L_, Q9UKT9] | class 1
* FHCPVCGAKFTQKGNLLRHIKL [46F_47H_49P_50V_52G_53A_54K_55F_67L_, Q9UKT9] | class 1
* LWCPICGFECTQKGNLLRHIKL [46L_47W_49P_50I_52G_53F_54E_55C_67L_, Q9UKT9] | class 0

[ask] Reported log2 fold change of degron read counts reaches at least 0.4 for LYCPICGFSCTQKGNLLRHIKL [46L_47Y_49P_50I_52G_53F_54S_55C_67L_, Q9UKT9] ?
[reply] class 1

[ask] Reported log2 fold change of degron read counts reaches at least 0.4 for FMCPVCGAKFTQKGNLLRHIKL [46F_47M_49P_50V_52G_53A_54K_55F_67L_, Q9UKT9] ?
[reply] class 1

[ask] Reported log2 fold change of degron read counts reaches at least 0.4 for FACEICGRYFTQKGNLLRHIKL [46F_47A_49E_50I_52G_53R_54Y_55F_67L_, Q9UKT9] ?
[reply] class 0

[ask] Reported log2 fold change of degron read counts reaches at least 0.4 for FSCPICGHQFTQKGNLLRHIKL [46F_47S_49P_50I_52G_53H_54Q_55F_67L_, Q9UKT9] ?
[reply] class 0

[ask] Reported log2 fold change of degron read counts reaches at least 0.4 for FVCNQCGRLFTQKGNLLRHIKL [46F_47V_49N_50Q_52G_53R_54L_55F_67L_, Q9UKT9] ?
[reply] class 0

[ask] Reported log2 fold change of degron read counts reaches at least 0.4 for LNCPICGFECTQKGNLLRHIKL [46L_47N_49P_50I_52G_53F_54E_55C_67L_, Q9UKT9] ?
[reply] class 1

[ask] Reported log2 fold change of degron read counts reaches at least 0.4 for FVCPVCGAKFTQKGNLLRHIKL [46F_47V_49P_50V_52G_53A_54K_55F_67L_, Q9UKT9] ?
[reply] class 1
